Field: partition constant PO^I (oil-interfacial). Provide a value for each of the compounds that follow.
assay: Chemical kinetic method (pseudophase model) with the probe 16-ArN2^+ in intact fish oil-in-water nanoemulsions; assay type: physicochemical; settings: intact 1:9 fish oil-in-water nanoemulsions, T = 25 °C
Numbers only.

Worked cases, answers included:
compoundStructure: CCCCCCCCCCCCCCCC(=O)OCCc1ccc(O)c(O)c1
observedMeasurement: 13

compoundStructure: CCC(=O)OCCc1ccc(O)c(O)c1
observedMeasurement: 28

compoundStructure: CCCCCCCC(=O)OCCc1ccc(O)c(O)c1
observedMeasurement: 22

Please turn your attention to the following entry.
Query: What partition constant PO^I (oil-interfacial) value was documented for this compound, CCCCCCCCCCCC(=O)OCCc1ccc(O)c(O)c1 ?
Reply: 16

----------
test: DPPH radical assay, EC50 values at different reaction times; assay type: biochemical; conditions: t = 5 min, T = 25 °C
Provide the recorded EC50 for the entries that follow.
Numbers only, in mol AO/mol DPPH^●.

Use the examples below as a reference point.
compound: O=COCCc1ccc(O)c(O)c1
EC50 / mol AO/mol DPPH^●: 0.338
//
compound: CCCCCCCCCCCC(=O)OCCc1ccc(O)c(O)c1
EC50 / mol AO/mol DPPH^●: 0.345
//
compound: OCCc1ccc(O)c(O)c1 [HT, Hydroxytyrosol]
EC50 / mol AO/mol DPPH^●: 0.323
//
compound: CCC(=O)OCCc1ccc(O)c(O)c1
EC50 / mol AO/mol DPPH^●: 0.345
//
compound: CCCCCCCCCCCCCCCC(=O)OCCc1ccc(O)c(O)c1
EC50 / mol AO/mol DPPH^●: 0.331

Please turn your attention to the following entry.
Query: Which EC50 value belongs to CCCCCCCC(=O)OCCc1ccc(O)c(O)c1 ?
Reply: 0.295

----------
assay: Chemical kinetic method (pseudophase model) with the probe 16-ArN2^+ in intact fish oil-in-water nanoemulsions; type: physicochemical; conditions: intact 1:9 fish oil-in-water nanoemulsions, T = 25 °C; values given as 10^2 kI
endpointLabel: 10^2 kI, interfacial rate constant for the reaction between 16ArN2^+ and AO
Please state the number and follow it with the unit.

Completed entries (count: 4):
compound: OCCc1ccc(O)c(O)c1 [HT, Hydroxytyrosol]
observedMeasurement: 14.2 ± 0.1 M^−1 s^−1
//
compound: CCCCCCCCCCCCCCCC(=O)OCCc1ccc(O)c(O)c1
observedMeasurement: 25.0 ± 0.8 M^−1 s^−1
//
compound: CCCCCCCC(=O)OCCc1ccc(O)c(O)c1
observedMeasurement: 21.0 ± 0.3 M^−1 s^−1
//
compound: CCCCCCCCCCCC(=O)OCCc1ccc(O)c(O)c1
observedMeasurement: 25.3 ± 0.7 M^−1 s^−1

Now for a further compound.
Query: Which 10^2 kI, interfacial rate constant for the reaction between 16ArN2^+ and AO is listed for CCC(=O)OCCc1ccc(O)c(O)c1 ?
Reply: 27.7 ± 4.7 M^−1 s^−1

----------
assay: DPPH radical assay, EC50 values at different reaction times; type: biochemical; conditions: t = 15 min, T = 25 °C
Exercise: state measured EC50 for each of the compounds provided.
Give bare numbers, in mol AO/mol DPPH^●.

compound: CCC(=O)OCCc1ccc(O)c(O)c1
endpointLabel: EC50
observedMeasurement: 0.299

For each entry beneath this line, provide reported EC50.
1. CCCCCCCCCCCC(=O)OCCc1ccc(O)c(O)c1
2. CCCCCCCC(=O)OCCc1ccc(O)c(O)c1
3. OCCc1ccc(O)c(O)c1 [HT, Hydroxytyrosol]
4. O=COCCc1ccc(O)c(O)c1

Reply:
0.319
0.265
0.287
0.296

Query: Request the reported EC50 associated with CCCCCCCCCCCCCCCC(=O)OCCc1ccc(O)c(O)c1
Reply: 0.305
